Give measured inhibition at 10 µM for each item. Keep answers brief.
Target: human SCD1 enzyme (Homo sapiens)
Sequence (O00767 whole entry): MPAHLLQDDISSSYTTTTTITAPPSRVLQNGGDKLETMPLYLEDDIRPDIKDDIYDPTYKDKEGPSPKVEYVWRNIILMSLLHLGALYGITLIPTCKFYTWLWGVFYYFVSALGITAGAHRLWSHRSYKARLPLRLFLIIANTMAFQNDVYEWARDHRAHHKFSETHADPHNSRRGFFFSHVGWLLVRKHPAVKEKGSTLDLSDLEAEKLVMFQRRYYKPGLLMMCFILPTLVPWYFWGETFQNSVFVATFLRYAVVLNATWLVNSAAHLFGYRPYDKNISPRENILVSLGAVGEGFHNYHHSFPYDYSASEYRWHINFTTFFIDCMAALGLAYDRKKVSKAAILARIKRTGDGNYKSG
Assay: Tritiated water release assay (conversion of radiolabeled stearoyl-CoA to oleoyl-CoA)
Assay type: biochemical
Details: 10 μM concentration of test compounds; microsomal SCD1, 3H stearoyl CoA, 37° C. 30 minutes; percent of control reaction; read-out: % Inhibition
Give bare numbers, in %.

[[record]]
compound = "O=C(c1ccccc1C(F)(F)F)N1CCN(c2ccc(C#Cc3ccc(O)c(F)c3)cn2)CC1 [Example 24]"
target_under_test = "human SCD1 enzyme (Homo sapiens)"
numeric_value = 79

[[record]]
compound = "COc1cccc(C#Cc2ccc(N3CCN(C(=O)c4cc(Cl)ccc4Cl)CC3)nc2)c1 [Example 31]"
target_under_test = "human SCD1 enzyme (Homo sapiens)"
numeric_value = 21

[[record]]
compound = "CC(=O)Oc1ccc(C#Cc2ccc(N3CCC(Nc4ccccc4F)CC3)nn2)cc1 [Example 101]"
target_under_test = "human SCD1 enzyme (Homo sapiens)"
numeric_value = 82

[[record]]
compound = "O=C(c1cc(Cl)ccc1Cl)N1CCN(c2ccc(C#Cc3ccccc3)cn2)CC1 [Example 21]"
target_under_test = "human SCD1 enzyme (Homo sapiens)"
numeric_value = 40

[[record]]
compound = "O=C(O)c1cc(C#Cc2ccc(N3CCN(C(=O)c4ccccc4C(F)(F)F)CC3)nc2)ccc1O [Example 35]"
target_under_test = "human SCD1 enzyme (Homo sapiens)"
numeric_value = 36


Lab note: each compound below needs its inhibition at 10 µM filled in.
1. Fc1cccc(C#Cc2ccc(N3CCC(Oc4ccccc4C(F)(F)F)CC3)nn2)c1 [Example 89]
2. O=C(c1ccccc1C(F)(F)F)N1CCN(c2ccc(C#CC(O)C34CC5CC(CC(C5)C3)C4)cn2)CC1 (stereo not drawn) [Example 7]
3. O=C(c1ccccc1C(F)(F)F)N1CCN(c2ccc(C#CC(O)c3ccccc3)cn2)CC1 (stereo not drawn) [Example 8]
4. CC(=O)Oc1ccc(C#Cc2ccc(NCCOc3ccccc3F)nn2)cc1 [Example 99]
5. COc1cc(C#Cc2ccc(N3CCC(Oc4ccccc4F)CC3)nn2)ccc1O [Example 83]
6. CCCC#Cc1ccc(N2CCN(C(=O)c3ccccc3C(F)(F)F)CC2)nc1 [Example 17]
7. O=C(c1ccccc1C(F)(F)F)N1CCN(c2ccc(C#Cc3cccc(O)c3)cn2)CC1 [Example 25]
8. O=C(c1ccccc1C(F)(F)F)N1CCN(c2ccc(C#Cc3ccc(O)cc3)cn2)CC1 [Example 23]

Reply text:
1. 82
2. 0.35
3. 42
4. 55
5. 93
6. 40
7. 97
8. 91

Lab note: each compound below needs its inhibition at 10 µM filled in.
1. CCCCS(=O)(=O)NCC#Cc1ccc(N2CCN(C(=O)c3ccccc3C(F)(F)F)CC2)nc1 [Example 16]
2. [O-][n+]1cccc(C#Cc2ccc(N3CCC(Oc4ccccc4F)CC3)nc2)c1 [Example 74]

Reply text:
[42, 44]

Source of measurements: patent US20080182851A1
